Entries and their POC (percent of control, FACS Geo Mean relative to binding to Ch. 1) values follow.
molecular target: T1, mOrai1-hOrai1 ECL2 (SPTKPPAE) protein (human/mouse chimera, UniProt Q8BWG9 1-304 (mouse entry)); assay: FACS, 293EBNA; set-up: concentration or dose not given beside the values
T1 construct: also called Ch
T1 sequence (Q8BWG9 other isoform, or with tags, fused parts or gaps): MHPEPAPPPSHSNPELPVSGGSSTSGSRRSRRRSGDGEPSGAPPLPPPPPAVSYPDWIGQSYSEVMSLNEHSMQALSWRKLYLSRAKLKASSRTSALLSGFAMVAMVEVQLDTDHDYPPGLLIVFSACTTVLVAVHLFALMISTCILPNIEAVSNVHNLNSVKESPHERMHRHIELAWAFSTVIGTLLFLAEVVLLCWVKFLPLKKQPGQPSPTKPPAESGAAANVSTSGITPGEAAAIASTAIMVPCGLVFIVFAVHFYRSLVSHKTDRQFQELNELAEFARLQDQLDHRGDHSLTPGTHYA

binder: mAb 2D2.1 (antibody, human IgG2, lambda, V domains shown, fully human IgG2 lambda, Campaign 1; also called mAb 2D.1) VH: QVQLQQWGAGLLKPSETLSLTCAVYGGSFSGYYWSWIRQPPGKGLEWIGEIDHSGRINYNPALKSRLTISVDTSKNQFSLKLSSVTAADTAVYYCARAGSGGYEDWFDPWGQGTLVTVSS VL: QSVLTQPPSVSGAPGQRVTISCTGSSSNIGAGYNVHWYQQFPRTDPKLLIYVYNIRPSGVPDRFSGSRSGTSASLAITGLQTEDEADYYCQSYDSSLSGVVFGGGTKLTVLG
observed: < 1%
--
binder: mAb 5B5.2 (antibody, human IgG2, lambda, V domains shown, fully human IgG2 lambda, Campaign 2; same chains as 5B5.1) VH: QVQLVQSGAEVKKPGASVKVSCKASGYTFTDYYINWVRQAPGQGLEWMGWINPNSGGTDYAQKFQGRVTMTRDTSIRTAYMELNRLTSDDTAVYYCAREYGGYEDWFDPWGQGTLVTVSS VL: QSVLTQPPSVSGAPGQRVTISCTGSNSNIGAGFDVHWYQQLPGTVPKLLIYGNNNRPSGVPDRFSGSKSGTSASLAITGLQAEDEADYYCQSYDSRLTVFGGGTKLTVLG
observed: < 1%

--- query ---
Task: Field request: POC (percent of control, FACS Geo Mean relative to binding to Ch. 1) | item: mAb 5F2.1 (antibody, human IgG2, lambda, V domains shown, fully human IgG2 lambda, Campaign 2) VH: QVQLVQSGAEVKKPGASVKVSCKASGYTFTDYYMNWVRQAPGQGLEWMGWINPNSGGTHYAQKFQGRVTMTRDTSISTAYMELSRLRSDDTAVYYCAREYGGYSDWFDPWGQGTLVTVSS VL: QSVLTQPPSVSGAPGQRVTISCTGSRSNIGAGYDVHWYQQLPRTAPKLLIYDNSNRPSGVPDRFSGSKSGSSASLAITGLQAEDEADYYCQSYDNSLSDSVLIGGGTKLTVLG
Result: < 1%
